- experimentalSystem: T-type calcium channel (Homo sapiens)
- Sequence (O95180 whole entry): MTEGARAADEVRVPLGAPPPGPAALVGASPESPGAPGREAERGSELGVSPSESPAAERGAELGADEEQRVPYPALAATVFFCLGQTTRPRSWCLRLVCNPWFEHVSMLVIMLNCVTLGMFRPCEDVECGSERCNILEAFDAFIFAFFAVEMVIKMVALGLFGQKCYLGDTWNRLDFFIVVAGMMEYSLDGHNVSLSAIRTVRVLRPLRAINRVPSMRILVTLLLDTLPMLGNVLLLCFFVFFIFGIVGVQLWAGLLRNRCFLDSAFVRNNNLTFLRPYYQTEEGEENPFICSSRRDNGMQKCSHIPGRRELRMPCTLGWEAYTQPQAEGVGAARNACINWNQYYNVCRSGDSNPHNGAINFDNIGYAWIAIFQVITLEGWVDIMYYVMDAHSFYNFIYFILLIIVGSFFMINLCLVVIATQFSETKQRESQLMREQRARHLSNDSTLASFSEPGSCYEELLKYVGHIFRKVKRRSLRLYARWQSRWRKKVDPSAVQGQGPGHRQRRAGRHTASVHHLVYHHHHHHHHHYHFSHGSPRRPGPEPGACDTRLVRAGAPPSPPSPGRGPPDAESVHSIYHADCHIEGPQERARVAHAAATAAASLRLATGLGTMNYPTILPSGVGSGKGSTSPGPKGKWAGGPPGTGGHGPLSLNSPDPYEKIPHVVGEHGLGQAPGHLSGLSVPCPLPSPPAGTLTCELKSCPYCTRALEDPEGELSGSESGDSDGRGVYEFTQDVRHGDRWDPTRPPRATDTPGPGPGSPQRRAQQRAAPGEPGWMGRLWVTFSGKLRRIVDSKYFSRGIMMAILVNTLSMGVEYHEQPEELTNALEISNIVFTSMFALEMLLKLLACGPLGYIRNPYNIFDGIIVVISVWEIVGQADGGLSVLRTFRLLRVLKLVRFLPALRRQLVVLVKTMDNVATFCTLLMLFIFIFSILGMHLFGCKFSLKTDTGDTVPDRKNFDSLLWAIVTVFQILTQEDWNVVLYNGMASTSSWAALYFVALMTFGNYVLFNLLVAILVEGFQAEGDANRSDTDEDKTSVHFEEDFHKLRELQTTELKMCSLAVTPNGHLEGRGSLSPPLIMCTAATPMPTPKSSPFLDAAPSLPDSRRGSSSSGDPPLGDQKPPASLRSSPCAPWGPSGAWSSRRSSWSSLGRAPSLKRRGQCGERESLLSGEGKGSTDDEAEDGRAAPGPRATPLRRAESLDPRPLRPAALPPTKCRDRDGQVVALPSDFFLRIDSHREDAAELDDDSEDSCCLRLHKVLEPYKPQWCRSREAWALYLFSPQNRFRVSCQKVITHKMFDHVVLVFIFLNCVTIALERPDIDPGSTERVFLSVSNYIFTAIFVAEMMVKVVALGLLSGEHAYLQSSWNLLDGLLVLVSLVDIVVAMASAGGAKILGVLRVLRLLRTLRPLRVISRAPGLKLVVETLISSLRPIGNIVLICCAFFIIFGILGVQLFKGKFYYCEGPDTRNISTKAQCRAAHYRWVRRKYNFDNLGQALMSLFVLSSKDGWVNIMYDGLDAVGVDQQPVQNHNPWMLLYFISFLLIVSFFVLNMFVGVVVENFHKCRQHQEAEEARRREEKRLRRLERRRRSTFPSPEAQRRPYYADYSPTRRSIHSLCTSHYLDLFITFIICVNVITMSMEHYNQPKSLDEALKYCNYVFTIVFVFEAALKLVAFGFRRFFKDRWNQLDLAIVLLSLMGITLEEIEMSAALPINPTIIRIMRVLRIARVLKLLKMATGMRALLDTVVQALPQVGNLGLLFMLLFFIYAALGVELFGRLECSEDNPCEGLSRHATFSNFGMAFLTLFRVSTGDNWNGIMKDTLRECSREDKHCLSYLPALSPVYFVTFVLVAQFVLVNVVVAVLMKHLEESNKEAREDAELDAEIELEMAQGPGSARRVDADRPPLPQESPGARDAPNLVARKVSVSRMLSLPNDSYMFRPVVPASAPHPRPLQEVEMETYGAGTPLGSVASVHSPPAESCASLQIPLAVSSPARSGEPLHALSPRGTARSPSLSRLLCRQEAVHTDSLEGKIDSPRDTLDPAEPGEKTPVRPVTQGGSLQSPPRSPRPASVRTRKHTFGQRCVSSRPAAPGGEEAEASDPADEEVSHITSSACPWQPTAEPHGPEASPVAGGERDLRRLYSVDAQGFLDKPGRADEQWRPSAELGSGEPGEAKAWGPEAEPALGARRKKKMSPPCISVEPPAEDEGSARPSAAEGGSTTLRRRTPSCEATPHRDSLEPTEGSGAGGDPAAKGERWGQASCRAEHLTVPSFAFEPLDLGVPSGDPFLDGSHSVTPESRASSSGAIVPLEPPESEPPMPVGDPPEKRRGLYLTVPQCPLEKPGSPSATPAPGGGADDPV
- test: T-type channel blocking, FLIPR data (Table 6)
- Format: cell-based
- measurementConditions: CAv3.2, inactivated state, read-out: CAv3.2 IC50 Inact.
Recorded pIC50, one value per entry.
Here pIC50 is given on a logarithmic scale as minus log10 of the concentration in mol/L.

Please review the following examples before continuing.
compound	pIC50
CC(C)([C@H]1C[C@H](C(=O)Nc2ccc(C(F)(F)F)nc2)C1)S(=O)(=O)c1cccc(C(F)(F)F)c1	6.14
CC(C)(C[C@H]1C[C@H](NC(=O)c2ccc(C(F)(F)F)nc2)C1)S(=O)(=O)c1cccc(C(F)(F)F)c1	5.29
CC(C)([C@H]1C[C@@H](NC(=O)c2ccc(C(F)(F)F)cc2S(C)(=O)=O)C1)S(=O)(=O)c1cccc(OC(F)(F)F)c1	5.15
CC(C)([C@H]1C[C@@H](NC(=O)c2ccc(C(F)(F)F)cc2)C1)S(=O)(=O)c1cccc(C(F)(F)F)c1	6.18

# assay system T-type calcium channel (Homo sapiens): give pIC50 of "O=C(NC[C@H]1C[C@H](S(=O)(=O)c2cccc(Cl)c2)C1)c1cnc(C(F)(F)F)nc1"
5.00

Please tell me the measured pIC50 for N[C@H]1CCCCC1C(=O)NC[C@H]1C[C@H](S(=O)(=O)c2cc(F)cc(C(F)(F)F)c2)C1 (some centres unmarked) ; system: T-type calcium channel (Homo sapiens).
5.00

Specify pIC50 for CC(C)(C1CC(CNC(=O)c2cc(C(F)(F)F)n[nH]2)C1)S(=O)(=O)c1cccc(C(F)(F)F)c1 (centres unmarked) , system T-type calcium channel (Homo sapiens).
5.49
